- systemName: T1, FcRL1, overexpressed on 3T3 cells (UniProt Q96LA6 17-429, limits assumed)
- T1 construct: whole, on cells
- T1 sequence (looked up): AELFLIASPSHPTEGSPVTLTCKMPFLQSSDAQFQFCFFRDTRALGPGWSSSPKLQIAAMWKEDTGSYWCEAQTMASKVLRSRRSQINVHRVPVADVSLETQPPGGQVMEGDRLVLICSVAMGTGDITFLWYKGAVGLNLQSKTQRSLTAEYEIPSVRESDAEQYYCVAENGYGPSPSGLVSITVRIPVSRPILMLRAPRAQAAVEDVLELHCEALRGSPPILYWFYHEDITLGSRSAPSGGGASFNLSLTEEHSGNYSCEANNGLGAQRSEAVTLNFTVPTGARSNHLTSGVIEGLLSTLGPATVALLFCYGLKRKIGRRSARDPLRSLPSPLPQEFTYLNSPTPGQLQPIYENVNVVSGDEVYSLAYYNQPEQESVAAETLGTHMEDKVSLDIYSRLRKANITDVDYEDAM
- method: phage clone on 3T3-FcRL1 cells
measuredEndpoint: binding result

binder	result
ET200-012 (scFv, screened as phage clone; entry is VL-linker-VH-His tag-HA tag) scFv: QSVLTQPPSVSAAAGQKVTISCSGSDSNIGNNYVSWYQHLPGTAPKLLIYDVKNRPSGIPDRFSGSKSGSSATLGIAGLQPGDEADYYCGTWDSRLDAYVFGTGTKVTVLGSRGGGGSGGGGSGGGGSLEMAQMQLVQSGAEVKKPGASVKVSCKTSGFPFNIFGITWVRQAPGQGLEWMGWISGYNGNTDYPQKFQGRVTMSTDTSTSTAYMELRNLKSDDTAVYYCARGAYGGMDTWGQGTLVTVSSTSGQAGQHHHHHHGAYPYDVPDYAS	no binding
ET200-007 (scFv, screened as phage clone; entry is VL-linker-VH-His tag-HA tag) scFv: SYVLTQPLSVSVAPGKTARITCGGNNIGSKTVHWYQQKPGQAPVLVIYYDSDRPSGIPERFSGSNSGNTATLTISRVEAGDEADYYCQVWDSSSDHRVFGGGTKLTVLGSRGGGGSGGGGSGGGGSLEMAQVQLQESGPGLVKPSETLSLTCNVSGYSISSGYFWGWIRQPPGKGLEWIGSIYHSRSTYYNPSLKSRVTISVDTSKNQFSLKLNSVTAADTAVYYCARGYGYFDYWGQGTLVTVSSTSGQAGQHHHHHHGAYPYDVPDYAS	no binding
